- EXPERIMENT_NOTES: Cytotoxic activity against HEL cells assessed as alteration of cell morphology after 3 days by microscopic method
- Type: cell-based
- CONDITION_SET: human
PARAMETER_MEASURED: MCC at 72 h

Look over these answered cases.
INSERT INTO assay_data (compound, observed_result) VALUES
  ('Nc1nc(O)c2ncn(C[C@@H](CF)OCP(=O)(O)O)c2n1', '> 311 µM'),
  ('Nc1ncnc2c1ncn2C[C@H](CF)OCP(=O)(O)O', '> 328 µM'),
  ('Nc1ncnc2c1ncn2C[C@@H](CF)OCP(=O)(O)O', '> 328 µM'),
  ('CCCCCOC(=O)C[C@H](NP(=O)(CO[C@@H](CF)Cn1cc(C)c(=O)[nH]c1=O)Oc1ccccc1)C(=O)OCCCCC (stereo not given in full)', '31.9 µM');

-- ask What value of measured MCC at 72 h is listed for Nc1ccn(C[C@H](CF)OCP(=O)(O)O)c(=O)n1 ?
-- reply > 356 µM

-- ask Requested field: MCC at 72 h. Item: Cc1cn(C[C@H](CF)OCP(=O)(O)O)c(=O)[nH]c1=O
-- reply > 338 µM

-- ask Given the entry Nc1nc2c(ncn2COC(CO)CO)c(=O)[nH]1 [GANCICLOVIR] , report its measured MCC at 72 h.
-- reply > 391 µM

-- ask State the recorded MCC at 72 h for this entry: Nc1ccn(C[C@@H](CO)OCP(=O)(O)O)c(=O)n1 [CIDOFOVIR]
-- reply > 358 µM

-- ask If you can, please state the reported MCC at 72 h value of Nc1nc2c(ncn2COCCO)c(=O)[nH]1 [ACYCLOVIR] .
-- reply > 444 µM

-- ask Consider the compound shown here: Cc1cn(C[C@@H](CF)OCP(=O)(O)O)c(=O)[nH]c1=O What is its recorded MCC at 72 h?
-- reply > 338 µM
